We begin with a simple list: items and their reported hIL11 - average signal.
# tested_on: T1, Human IL-11 (human, UniProt P20809 22-199)
# T1 construct: Recombinant human IL-11 (GenScript Cat. No. Z03108-1) or IL-11 secreted by human cells; the mature form is said to have 178 residues; also called recombinant human IL-11; endogenously produced IL-11
# T1 sequence: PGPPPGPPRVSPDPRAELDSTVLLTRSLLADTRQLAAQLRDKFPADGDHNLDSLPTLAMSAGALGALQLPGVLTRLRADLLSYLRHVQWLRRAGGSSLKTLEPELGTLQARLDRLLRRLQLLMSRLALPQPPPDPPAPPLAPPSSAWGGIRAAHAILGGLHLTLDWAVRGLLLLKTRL
# test_description: ELISA
Give the figure by itself; no unit, no explanation.

Completed entries (count: 4):
binder	hIL11 - average signal
YU100-B03 (antibody) QVQLVQSGGGVVQPGRSLRLSCAASGFTFSSYGMHWVRQAPGKGLEWVAVISYDGSNKYYADSVKGRFTISRDNSKNTLYLQMNSLRAEDTAVYYCAKIGATDPLDYWGQGTLVTVSSGSASAPKLEEGEFSEARVQSVLTQPRSVSGSPGRSVTISCTGTSSDVGGYNYVSWYQQHPGKAPKLTLYDVVKRPSGVPDRYSGSKSGNTASLTISGLQAEDEADYYCCSYAGGYTWVFGGGTKVTVV	0.227
YU112-B06 (antibody) QVQLVESGGGVVQPGRSLRLSCAASGFTFSSYGMHWVRQAPGKGLEWVAVISYDGSNKYYADSVKGRFTISRDNSKNTLYLQMNSLRAEDTAVYYCAKIGATDPLDYWGQGTLVTVSSGSASAPKLEEGEFSEARVQSALTQPASVSGSPGQSITISCTGTSSDVGGYNYVSWYQQHPGKAPKLMIYDVSNRPSGVSNRFSGSKSGNTASLTIFGLQAEDEADYYCSSYTSSSSWVFGGGTKLTVL	0.756
YU112-F05 (antibody) EVQLVQSGGGVVQPGRSLRLSCAASGFTFGSYGMHWVRQAPGKGLEWVAVISYDGSNKYYADSVKGRFTISRDNSKNTLYLQMNSLRAEDTAVYYCAKIGATDPLDYWGQGTLVTVSSGSASAPKLEEGEFSEARVQSALTQPRSVSGSPGQSVTISCTGTSSDVGGYNYVSWYQQHPGKAPKLIIYDVNNRPSGVSNRFSASKSGNTASLTISGLQAEDEADYYCNSYTSGSTWVFGGGTKLTVL	0.863
YU100-E01 (antibody) QVQLQQSGGGVVQPGRSLRLSCAASGFTFSSYGMHWVRQAPGKGLEWVAVISYDGSNKYYADSVKGRFTISRDNSKNTLYLQMNSLRAEDTAVYYCAKIGATDPLDYWGQGTLVTVSSGSASAPKLEEGEFSEARVQSALTQPASVSGSPGQSITISCTGTSNDIGAYNYVSWYQQHPGKAPKLLIYDVNNRPSGVSDRFSGSKSGNTASLTISGLQAEDEADYYCCSYAGSYSWVFGGGTKLTVLGQPKANPTVTLFPPSS	0.207

Kindly review the next binder as well.
Record YU100-H04 (antibody) QVQLVESGGGVVQPGRSLRLSCAASGFTFSSYAMHWVRQAPGKGLEWVAVISYDGSNKYYADSVKGRFTISRDNSKNTLYLQMNSLRAEDTAVYYCARIMGYDYGDYDVVDYWGQGTLVTVSSGSASAPKLEEGEFSEARVQSALTQPASVSGSPGQSITISCTGTSSDIGVYNYVSWYQQHPGKAPKLMIYDVSKRPSGVPDRFSGSKSGNTASLTISGLQAEDEADYYCCSYAGSYTWVFGGGTKLTVL , field hIL11 - average signal: 0.508
